%-inhibition of CRIK reference
target: panel of more than 300 wild-type and mutant kinases (313 kinase panel) (Homo sapiens); assay: Kinase profiling in a biochemical assay panel (mobility shift assays and ELISA), %-inhibition at 1 μM; selectivity entropy; settings: kinase CRIK; compound at 1 μM
testReadout: %-inhibition of CRIK (%)

>>> quantitativeresult("CS(=O)(=O)CCNCc1ccc(-c2ccc3ncnc(Nc4ccc(OCc5cccc(F)c5)c(Cl)c4)c3c2)o1")
7
>>> quantitativeresult("CO[C@H]1C[C@@H]2CC[C@@H](C)[C@@](O)(O2)C(=O)C(=O)N2CCCC[C@H]2C(=O)O[C@H]([C@H](C)C[C@@H]2CC[C@@H](OC(=O)C(C)(CO)CO)[C@H](OC)C2)CC(=O)[C@H](C)/C=C(\\C)[C@@H](O)[C@@H](OC)C(=O)[C@H](C)C[C@H](C)/C=C/C=C/C=C/1C")
-15
>>> quantitativeresult("CC(C)(C)c1nc(-c2cccc(NS(=O)(=O)c3c(F)cccc3F)c2F)c(-c2ccnc(N)n2)s1")
-2.74

----------
molecular target: panel of more than 300 wild-type and mutant kinases (313 kinase panel) (Homo sapiens); test: Kinase profiling in a biochemical assay panel (mobility shift assays and ELISA), %-inhibition at 1 μM; selectivity entropy; conditions: kinase AurB; 1 μM compound
testReadout: %-inhibition, AurB (%)

>>> quantitativeresult("CCCS(=O)(=O)Nc1ccc(F)c(C(=O)c2c[nH]c3ncc(-c4ccc(Cl)cc4)cc23)c1F")
6
>>> quantitativeresult("Cc1ccc(C(=O)Nc2ccc(CN3CCN(C)CC3)c(C(F)(F)F)c2)cc1C#Cc1cnc2cccnn12")
46
>>> quantitativeresult("CC(=O)Nc1cccc(-n2c(=O)n(C3CC3)c(=O)c3c(Nc4ccc(I)cc4F)n(C)c(=O)c(C)c32)c1")
-4
>>> quantitativeresult("O=S(=O)(c1cccc2cnccc12)N1CCCNCC1")
1
>>> quantitativeresult("Cc1cn(-c2cc(NC(=O)c3ccc(C)c(Nc4nccc(-c5cccnc5)n4)c3)cc(C(F)(F)F)c2)cn1")
-11
>>> quantitativeresult("COc1cc2c(Nc3ccc(Br)cc3F)ncnc2cc1OCC1CCN(C)CC1")
23
>>> quantitativeresult("N#CC[C@H](C1CCCC1)n1cc(-c2ncnc3[nH]ccc23)cn1")
24
>>> quantitativeresult("Cc1ccc(Nc2nccc(N(C)c3ccc4c(C)n(C)nc4c3)n2)cc1S(N)(=O)=O")
45

----------
%-inhibition of PASK reference
target: panel of more than 300 wild-type and mutant kinases (313 kinase panel) (Homo sapiens); experiment: Kinase profiling in a biochemical assay panel (mobility shift assays and ELISA), %-inhibition at 1 μM; selectivity entropy; conditions: kinase PASK; 1 μM
testReadout: %-inhibition of PASK (%)

>>> quantitativeresult("O=S(=O)(c1cccc2cnccc12)N1CCCNCC1")
2.25
>>> quantitativeresult("CO[C@H]1C[C@@H]2CC[C@@H](C)[C@@](O)(O2)C(=O)C(=O)N2CCCC[C@H]2C(=O)O[C@H]([C@H](C)C[C@@H]2CC[C@@H](OC(=O)C(C)(CO)CO)[C@H](OC)C2)CC(=O)[C@H](C)/C=C(\\C)[C@@H](O)[C@@H](OC)C(=O)[C@H](C)C[C@H](C)/C=C/C=C/C=C/1C")
-8
>>> quantitativeresult("CC(=O)Nc1cccc(-n2c(=O)n(C3CC3)c(=O)c3c(Nc4ccc(I)cc4F)n(C)c(=O)c(C)c32)c1")
-0.187
>>> quantitativeresult("CNC(=O)c1cc(Oc2ccc(NC(=O)Nc3ccc(Cl)c(C(F)(F)F)c3)c(F)c2)ccn1")
0.282
>>> quantitativeresult("Cc1cn(-c2cc(NC(=O)c3ccc(C)c(Nc4nccc(-c5cccnc5)n4)c3)cc(C(F)(F)F)c2)cn1")
-3
>>> quantitativeresult("COc1cc(Nc2c(C#N)cnc3cc(OCCCN4CCN(C)CC4)c(OC)cc23)c(Cl)cc1Cl")
-0.0941
>>> quantitativeresult("CS(=O)(=O)CCNCc1ccc(-c2ccc3ncnc(Nc4ccc(OCc5cccc(F)c5)c(Cl)c4)c3c2)o1")
-5
>>> quantitativeresult("C[C@@H](Oc1cc(-c2cnn(C3CCNCC3)c2)cnc1N)c1c(Cl)ccc(F)c1Cl")
1
>>> quantitativeresult("Cc1ccc(Nc2nccc(N(C)c3ccc4c(C)n(C)nc4c3)n2)cc1S(N)(=O)=O")
-2.41
>>> quantitativeresult("CC(C)(C)c1nc(-c2cccc(NS(=O)(=O)c3c(F)cccc3F)c2F)c(-c2ccnc(N)n2)s1")
1.12
>>> quantitativeresult("CO[C@H]1C[C@@H]2CC[C@@H](C)[C@@](O)(O2)C(=O)C(=O)N2CCCC[C@H]2C(=O)O[C@H]([C@H](C)C[C@@H]2CC[C@@H](OCCO)[C@H](OC)C2)CC(=O)[C@H](C)/C=C(\\C)[C@@H](O)[C@@H](OC)C(=O)[C@H](C)C[C@H](C)/C=C/C=C/C=C/1C")
-9
>>> quantitativeresult("COc1cc2c(Nc3ccc(Br)cc3F)ncnc2cc1OCC1CCN(C)CC1")
-4.23
>>> quantitativeresult("CCCS(=O)(=O)Nc1ccc(F)c(C(=O)c2c[nH]c3ncc(-c4ccc(Cl)cc4)cc23)c1F")
2.35
>>> quantitativeresult("Cc1ccc(C(=O)Nc2ccc(CN3CCN(C)CC3)c(C(F)(F)F)c2)cc1C#Cc1cnc2cccnn12")
25
>>> quantitativeresult("COc1cc2nccc(Oc3ccc(NC(=O)C4(C(=O)Nc5ccc(F)cc5)CC4)cc3)c2cc1OC [cabozantinib]")
-2.16
>>> quantitativeresult("N#CC[C@H](C1CCCC1)n1cc(-c2ncnc3[nH]ccc23)cn1")
0.47
